Target: SARS-CoV-2 spike RBD (WT) (Severe acute respiratory syndrome …, UniProt P0DTC2)
Test: BLI
Entries whose Kd is below 40 nM take Criterion met; entries at or above 40 nM take Criterion not met.

Q: Please check: Kd for B47 (antibody, V domains shown) VH: EVQLQQSGPELVKPGASVKISCKASDYSFTGYYMNWVKQSPEKSLEWIGEINPSTGGTTYNQKFKAKATLTVDKSSSTAYMQLKSLTSEDSAVYYCARGSGAYWGQGTLVTVSA VL: DIVLTQSPASLAVSLGQRATISCRASESVEYYGTSLMQWYQQKPGQPPKLLIYAASNVESGVPARFSGSGSGTDFSLNIHPVEEDDIAMYFCQQSRKVPYTFGGGTKLEIK , strictly under 40 nM or not?
A: Criterion met

Q: Please check: Kd for A09 (antibody, V domains shown) VH: QVQLQQPGAELVKPGASVKVSCKASGYTFTSYWMHWVKQRPGQGLEWIGRIHPSDSDTNYNQKFKGKATLTVDKSSSTAYMQLSSLTSEDSAVYSCARGMDYWGQGTSVTVSS VL: DVVLTQTPLSLPVNIGDQASISCKSTKSLLNSVGFTYLDWYLQKPGQSPQLLIYLVSNRFSGVPDRFSGSGSGTDFTLKISRVEAEDLGVYYCFQSNYLPYTFGGGTKLEIK , strictly under 40 nM or not?
A: Criterion met

Q: Please check: Kd for B45 (antibody) chain 1: QVQLQQPGAELVKPGASVKVSCKASGYTFTSYWMHWVKQRPGQGLEWIGRIHPSDSDTNYNQKFKGKATLTVDKSSSTAYMQLCSLTSEDCAVYYCAIWEDYGVFYAMDYWGQGTSVTVSS chain 2: DIVMTQSQKFMSTSVGDRVSVTCKASQNVGTNVAWYQQKPGQSPKALIYSASYRYSGVPDRFTGSGSGTDFTLTISNVQSEDLAEYFCQQYNSYPLTFGAGAKLELK , strictly under 40 nM or not?
A: Criterion not met

Q: Please check: Kd for B08 (antibody, V domains shown) VH: EVQLQQSGPELVKPGASVKISCKASGYSFTGYYMNWVKQSPEKSLEWIGEINPSTGGTTYNQKFKAKATLTVDKSSSTAYMQLKSLTSEDSAVYYCARGGADVWGTGTTVTVSS VL: DIVLTQSPASLAVSLGQRATISCRASESVEYYGTSLMQWYQQKPGQPPKLLIYAASNVESGVPARFSGSGSGTDFSLNIHPVEEDDIAMYFCQQSRKVPWTFGGGTKLEIK , strictly under 40 nM or not?
A: Criterion not met

Q: Please check: Kd for B32 (antibody, V domains shown) VH: QVQLQQSGPELVKPGASVKISCKASGYAFSSSWMNWVKQRPGKGLEWIGRIYPGDGDTNYNGKFKGKATLTADKSSSTAYMQLSSLTSEDSAVYFCARELDPPWGQGTTLTVSS VL: DILMTQSPSSMSVSLGDTVSITCHASQGISSNIGWLQQKPGKSFKGLIYHGTNLEDGVPSRFCGSGSGADYSLTISSLESEDFADYYCVQYAQFPFTFGSGTKLEIK , strictly under 40 nM or not?
A: Criterion not met

Source: paper PMC9876794
